B1: HSP90AB1 (parent)
chain: QVANSAFVERVRKRGFEVVYMTEP

Variants of: B1
Assay: protein stability index of a GFP-peptide fusion (GPS, HEK-293T) (PSI 1-6); higher = more stable;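 also: lentivirally expressed fusions sorted by FACS into six bins by GFP to DsRed ratio, PSI derived from sequencing read proportions per bin multiplied by bin number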
Conditions: c terminus: a fixed tail appended
What protein stability index was measured for each of the following?

Kindly note the recorded protein stability index for F16E , which is 4.47

Please fill in: protein stability index reported for F16N = 3.3

Looking up V11H , I see its protein stability index listed as 2.73

Lab note: G15M gave protein stability index of 2.07

G15P has a reported protein stability index of 2.75

Record summary for F16Q : reported protein stability index = 4.2

Entry S5P — recorded protein stability index = 2.44

Recorded protein stability index (variant V18E ): 2.99

Just so you know, measured protein stability index for R12W came out at 1.6

The reported protein stability index of the variant K13N was 2.24

Measured protein stability index, T22M : 1.91

The variant listed as S5F has a reported protein stability index of 1.76

Measured protein stability index of S5G : 2.02

For this variant ( Y20I ), measured protein stability index is 1.78

Lab note: measured protein stability index of F16S was 3.64

Looking up V8Q , I found its protein stability index recorded as 2.2

Memo: G15L , reported protein stability index: 1.83

Reported protein stability index of F16M : 2.73

Value of measured protein stability index for the entry K13D : 2.67

Measured protein stability index, R12T : 2.09

For reference, reported protein stability index for A6K stands at 2.32

response.value for V8F (field: protein stability index) = 1.8

Form field protein stability index, entry T22Y : 1.95

According to the records, this variant P24M displays protein stability index of 2.14

Reported protein stability index ( S5V ) = 2.22

Consider E9Y . Its measured protein stability index is 2.32

Looking up N4A , I found its protein stability index recorded as 2.02

Noted for F16K : its protein stability index reads 3.2

Data point: A3M ; protein stability index = 2.26

get_value(item= V11Y , readout=protein stability index) returns 2.17

The measured protein stability index associated with V18L reads 2.58

For this variant ( A3C ), measured protein stability index is 2.01

Documented protein stability index of Y20V : 3.05

Given item E17F , the value recorded as its protein stability index is 4.31

Please fill in: protein stability index reported for F7S = 2.32

Lookup result for V11G ; measured protein stability index: 2.56

Notebook: V18A , protein stability index read as 2.96

Query E17R yields protein stability index of 2.19

Summary for this variant, V19N : protein stability index is 3.15

The variant identified as V11E registered its protein stability index at 3.58

Sure, the documented protein stability index for A6H is 2.43

Lab note: S5M gave protein stability index of 2.2

Given item V8G , the value recorded as its protein stability index is 2.91

// K13I : protein stability index value = 1.51

protein stability index for F7W is 1.99

For record Y20T the listed protein stability index is 2.69

Numbers sourced from the supplement of paper PMC10567573.
